B1: 5KPH (parent)
chain: EEKRQVKQVAKEKLLEQSPNSKVQVRRVQKQGNTIRVELELRTNGKKENYTVEVERQGNTWTVKRITRT

# Variants of: B1
# assay.info: folding stability dG (cDNA display proteolysis); higher = more stable
# assay.setup: PBS, room temperature
# folding stability dG values compiled below
// return numeric value only (unit: kcal/mol, not printed)

variant.descriptor | folding stability dG, kcal/mol
L15F | 3.03
W61S | 2
Q31F | 4.21
K47Y | 3.8
L41N | 1.7
E2D | 3.9
R56T | 2.83
K64F | 3.7
N59Y | 3.82
E2Q | 3.9

Task: Kindly indicate its recorded folding stability dG. Item: V28C
Result: 3.4

Task: Kindly indicate its recorded folding stability dG. Item: K46F
Result: 3.81

Task: Kindly indicate its recorded folding stability dG. Item: E53N
Result: 2.78

Task: Kindly indicate its recorded folding stability dG. Item: V28G
Result: 1.87

Task: Kindly indicate its recorded folding stability dG. Item: V37G
Result: 1.21

Task: Kindly indicate its recorded folding stability dG. Item: V37C
Result: 2.65

Task: Kindly indicate its recorded folding stability dG. Item: R27D
Result: 3.1
